Listing of entries alongside the reported IC50.
Target: T1, HLA-DR DRB4*0101 (human)
T1 chain 1: not shown
T1 chain 2: not shown
Experiment: radioligand inhibition, purified HLA-DR
Details: remark: other sources report otherwise
# output: bare number, implied unit nM

Below, each entry is followed by its recorded IC50 result.
[[record]]
binder = "PPSMVAAGSVVAAVQ [Cyclin D1.109]"
test_result = 91

[[record]]
binder = "FYTLHVIKSDLVNEE [CEA.119 peptide 9019.0114]"
test_result = 22

[[record]]
binder = "SPGLSAGATVGIMIG [CEA.680 peptide 9019.0144]"
test_result = 2590

[[record]]
binder = "APTIRGDPECHLFYN [Peptide 9019.0022]"
test_result = 2510


Requested field: IC50. Item: TVGIMIGVLVGVALI [CEA.688 peptide 9019.05]
12100

Further, for TAKLTIESTPFNVAE [CEA.33 peptide 9019.0106] ?
53

Further, for MRKIVATWMLEVCEE [Cyclin D1.56] ?
281

Further, for ICELHCPALVTYNTD [Her2/neu.263] ?
441

Further, for QYSWRINGIPQQHTQ [CEA.624 peptide 9019.0138] ?
2290

Further, for RPRFRELVSEFSRMA [Peptide 9019.0095] ?
351

Further, for GARMPCAELVREPGC [Peptide 9019.0181] ?
4700

Further, for EALLESSLRQAQQNM [Cyclin D1.252] ?
4030

Further, for INGIPQQHTQVLFIA [CEA.629 peptide 9019.0139] ?
2700
